Target or system Heat shock protein HSP90 (Homo sapiens, UniProt P07900+P08238): recorded IC50 listed per item.
value-kind: IC50 (µM)

# annotated cases, reported IC50 shown
>>> numeric_value("CC(C)(C)c1ccc(S(=O)(=O)Nc2ccc(O)c(-c3c(O)ccc4ccccc34)c2)cc1")
26.4
>>> numeric_value("CCc1ccc(S(=O)(=O)Nc2ccc(O)c(-c3c(O)ccc4ccccc34)c2)cc1")
6.6
>>> numeric_value("O=S(=O)(Nc1ccc(O)c(-c2c(O)ccc3ccccc23)c1)c1ccc(Br)cc1")
6.1
>>> numeric_value("O=S(=O)(Nc1ccc(O)c(-c2c(O)ccc3ccccc23)c1)c1ccc(F)cc1")
8.8
>>> numeric_value("O=S(=O)(Nc1ccc(O)c(-c2c(O)ccc3ccccc23)c1)c1ccc(Cl)cc1")
2.2
>>> numeric_value("O=S(=O)(Nc1ccc(O)c(-c2c(O)ccc3ccccc23)c1)c1cccs1")
0.6

[A] Cc1cc(C)c(S(=O)(=O)Nc2ccc(O)c(-c3c(O)ccc4ccccc34)c2)cc1C
[B] O=S(=O)(Nc1ccc(O)c(-c2c(O)ccc3ccccc23)c1)c1ccccc1
Which value of IC50 is greater, the one for A or the one for B ? Mark your answer with the label of the selected entry.
A
